- test system: Type I 5α-Reductase from Human Scalp (Homo sapiens)
- Construct: Scalp punch biopsies from graft recipient sites were obtained from human hair transplant procedures; from tissue; host or cells: human scalp punch biopsies (hair transplant graft recipient sites), homogenate, 100,000×g pellet
- Sequence (P18405 1-259): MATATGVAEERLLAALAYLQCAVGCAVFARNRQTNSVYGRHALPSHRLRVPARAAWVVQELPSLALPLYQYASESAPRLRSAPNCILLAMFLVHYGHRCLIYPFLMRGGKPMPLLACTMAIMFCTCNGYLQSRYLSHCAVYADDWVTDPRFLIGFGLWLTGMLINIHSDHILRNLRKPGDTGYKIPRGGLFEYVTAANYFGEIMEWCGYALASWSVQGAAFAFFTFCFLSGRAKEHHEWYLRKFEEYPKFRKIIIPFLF
- assay: Human Type I 5α-reductase assay (conversion of [3H]-testosterone to 5α-reduced metabolites)
- Type: biochemical
- settings: pH 7.5, 0.3 μM; 50 nM [3H]-testosterone, pH 7.5, 25°, 180 min; compared to control reaction mixtures; read-out: percent inhibition of Type I AR
Label class 1 when inhibition at 0.3 µM is at or above 40%; anything below gets class 0.

>>> label_class("CN1C(=O)CC[C@]2(C)c3ccc(Sc4cc(-c5ccccc5)cc(-c5ccccc5)n4)cc3CC[C@@H]12")
"class 1"
>>> label_class("CN1C(=O)CC[C@]2(C)c3ccc(-c4ccc5c(c4)CCC5=O)cc3CC[C@@H]12")
"class 1"
>>> label_class("Cc1ccc(-c2ccc3c(c2)CC[C@H]2N(C)C(=O)CC[C@]32C)c2ccccc12")
"class 1"
>>> label_class("CN1C(=O)CC[C@]2(C)c3ccc(Sc4nc5ccccc5o4)cc3CC[C@@H]12")
"class 1"
>>> label_class("CN1C(=O)CC[C@]2(C)c3ccc(Sc4ccc5c([N+](=O)[O-])cccc5n4)cc3CC[C@@H]12")
"class 1"
>>> label_class("C[C@]12CCC(=O)N[C@@H]1CCc1cc(Sc3ccc(F)cc3)ccc12")
"class 0"
>>> label_class("C[C@]12CCC(=O)N[C@@H]1CCc1cc(Sc3ccc(Cl)cc3)ccc12")
"class 1"
>>> label_class("CN1C(=O)CC[C@]2(C)c3ccc(-c4ccc(O)c(F)c4)cc3CC[C@@H]12")
"class 1"
>>> label_class("CN1C(=O)CC[C@]2(C)c3ccc(SCc4nc5ccccc5s4)cc3CC[C@@H]12")
"class 1"
>>> label_class("CN1C(=O)CC[C@]2(C)c3ccc(-c4ccccc4C(F)(F)F)cc3CC[C@@H]12")
"class 1"
>>> label_class("CN1C(=O)CC[C@]2(C)c3ccc(Sc4ccc(Cl)cc4)cc3CC[C@@H]12")
"class 1"
>>> label_class("CN1C(=O)CC[C@]2(C)c3ccc(-c4nc5c(Cl)cccc5s4)cc3CC[C@@H]12")
"class 1"
>>> label_class("CCN(CC)C(=O)c1c(-c2ccc3c(c2)CC[C@H]2N(C)C(=O)CC[C@]32C)ccc2ccccc12")
"class 0"
>>> label_class("CN1C(=O)CC[C@]2(C)c3ccc(C(=O)c4ccccc4Cl)cc3CC[C@@H]12")
"class 0"
>>> label_class("CN1C(=O)CC[C@]2(C)c3ccc(-c4ccc(Oc5ccccc5)cc4)cc3CC[C@@H]12")
"class 1"
>>> label_class("CN1C(=O)CC[C@]2(C)c3ccc(-c4ccc5cc(OCc6ccccc6)ccc5c4)cc3CC[C@@H]12")
"class 1"

Values from patent US5622962A
